Experiment: collision cross section in nitrogen (drift tube, single-field); higher = larger gas-phase ion size;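 also: chemical standards at 10 µM analysed by drift tube IMS-QTOF MS in about 3.95 torr nitrogen, mean of duplicate injections differing ≤1%, mass error below 10 ppm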
Details: ion type: [M+H]; ion source: ESI; ion mode: Positive
Where a name gives a salt, the structure may show the parent alone.
readoutName: collision cross section in nitrogen (Å²)

1) O=C(N[C@H]1CN2CCC1CC2)c1ccc2c(c1)OCCO2 = 175.7
2) CN(C)CCCN1c2ccccc2CCc2ccc(Cl)cc21 [Clomipramine hydrochloride] = 174.5
3) Clc1ccc(Nc2nnc(Cc3ccncc3)c3ccccc23)cc1 [Vatalanib dihydrochloride] = 187.6
4) CC1(C)[C@@H](O[C@H]2O[C@H](C(=O)O)[C@@H](O)[C@H](O)[C@H]2O[C@@H]2O[C@H](C(=O)O)[C@@H](O)[C@H](O)[C@H]2O)CC[C@]2(C)[C@H]3C(=O)C=C4[C@@H]5C[C@@](C)(C(=O)O)CC[C@]5(C)CC[C@@]4(C)[C@]3(C)CC[C@@H]12 = 288.9
5) O=P(O)(Oc1ccccc1)Oc1ccccc1 [Diphenyl phosphate] = 156.5
6) OCc1ncccc1O [3-Hydroxy-2-(hydroxymethyl)pyridine hydrochloride] = 122.1
7) COc1ccc(C(O)(c2cncnc2)C2CC2)cc1 (stereo not given) = 164.2
8) CCOP(=S)(Oc1cnc(C(C)(C)C)nc1)OC(C)C (stereo not given) = 177.4
9) CC(O)CNCC(C)O (stereo not given) = 128.2
10) O=C(/C=C/C=C/c1ccc2c(c1)OCO2)N1CCCCC1 = 175.7
11) Nc1c(S(=O)(=O)O)cc(Nc2ccccc2)c2c1C(=O)c1ccccc1C2=O = 190.2
12) O=C(NC(=O)c1cc(F)c(F)cc1Cl)Nc1cc(F)ccc1N1CCC(C(=O)O)CC1 = 202.4
13) CCNc1nc(N)nc(Cl)n1 = 133.7
14) CC(C)(C)c1cc(/C=C2\SC(=N)NC2=O)cc(C(C)(C)C)c1O [Darbufelone mesylate] = 188
15) On1nnc2ccccc21 [1-Hydroxybenzotriazole] = 125.9
16) O=C(Nc1ccccc1)Nc1cnns1 = 147.9
17) COC(=O)N(C(=O)N1CO[C@@]2(C(=O)OC)Cc3cc(Cl)ccc3C2=N1)c1ccc(OC(F)(F)F)cc1 = 205.7
18) CCOc1ccc(NC(N)=O)cc1 = 144.1
19) CCCSc1ccc2[nH]c(NC(=O)OC)nc2c1 = 166
20) CCN(CC)c1ccc2c(c1)Oc1cc(N(CC)CC)ccc1C21OC(=O)c2ccccc21 = 218.5
21) CC(C)(C)C(O)(CCc1ccc(Cl)cc1)Cn1cncn1 (stereo not given) = 166.8
22) c1cc(N(CC2CO2)CC2CO2)ccc1Cc1ccc(N(CC2CO2)CC2CO2)cc1 (stereo not given) = 215.2
23) CNCc1cc(F)ccc1Oc1ccc(Cl)c(Cl)c1 = 173.4
24) CCOC(=O)O[C@H](C)OC(=O)c1ccc2c(c1)cc(C(=O)NC1CCN(C(C)C)CC1)n2Cc1cc(-c2ccc(Cl)s2)on1 = 267.7
25) C=CC(=O)OCC(COC(=O)C=C)(COC(=O)C=C)COC(=O)C=C [Pentaerythritol tetraacrylate] = 172.6
